assayed-target: Albumin (Homo sapiens, UniProt P02768)
Sequence (P02768 whole entry): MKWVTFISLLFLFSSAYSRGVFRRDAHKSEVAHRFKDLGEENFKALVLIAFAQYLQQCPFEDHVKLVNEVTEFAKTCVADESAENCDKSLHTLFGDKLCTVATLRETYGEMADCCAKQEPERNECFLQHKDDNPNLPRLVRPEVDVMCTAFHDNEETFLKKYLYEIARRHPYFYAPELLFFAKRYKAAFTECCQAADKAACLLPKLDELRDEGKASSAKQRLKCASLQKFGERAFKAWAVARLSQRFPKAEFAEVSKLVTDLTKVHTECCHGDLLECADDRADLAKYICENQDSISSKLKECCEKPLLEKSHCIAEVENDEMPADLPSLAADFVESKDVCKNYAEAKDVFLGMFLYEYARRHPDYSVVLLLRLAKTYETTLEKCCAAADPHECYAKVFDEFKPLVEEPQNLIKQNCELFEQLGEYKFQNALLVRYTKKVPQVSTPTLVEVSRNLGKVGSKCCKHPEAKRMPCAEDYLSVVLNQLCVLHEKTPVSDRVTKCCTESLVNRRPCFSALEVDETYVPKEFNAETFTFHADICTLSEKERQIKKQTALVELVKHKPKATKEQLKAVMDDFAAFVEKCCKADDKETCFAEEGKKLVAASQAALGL
assay-summary: Equilibrium dissociation constant for the interaction between the compound and serum albumin
Assay type: ADME
condition-details: read-out: KD1
Could you please report measured Kd for the items listed next?
Number in µM, nothing else.

Challenge: Notebook: pull reported Kd for Albumin (Homo sapiens, UniProt P02768), entry Cc1c(O)cccc1C(=O)N[C@@H](CSc1ccccc1)[C@H](O)CN1C[C@H]2CCCC[C@H]2C[C@H]1C(=O)NC(C)(C)C
Response given: 230

Challenge: Notebook: pull reported Kd for Albumin (Homo sapiens, UniProt P02768), entry CC(C)CN(C[C@@H](O)[C@H](Cc1ccccc1)NC(=O)O[C@H]1CCOC1)S(=O)(=O)c1ccc(N)cc1
Response given: 124

Challenge: Notebook: pull reported Kd for Albumin (Homo sapiens, UniProt P02768), entry CC(=O)O[C@@]1(C2/C(C)=C(/O)C(=O)C3=C(C)[C@@H](OC(=O)[C@H](O)[C@H](CC(C)C)NC(=O)OC(C)(C)C)C[C@@](O)([C@H]2OC(=O)c2ccccc2)C3(C)C)CO[C@@H]1CCO (stereo partly drawn)
Response given: 319

Challenge: Notebook: pull reported Kd for Albumin (Homo sapiens, UniProt P02768), entry COC(=O)N[C@H](C(=O)N[C@@H](Cc1ccccc1)[C@@H](O)CN(Cc1ccc(-c2ccccn2)cc1)NC(=O)[C@@H](NC(=O)OC)C(C)(C)C)C(C)(C)C
Response given: 149

Challenge: Notebook: pull reported Kd for Albumin (Homo sapiens, UniProt P02768), entry CC(C)(C)NC(=O)[C@@H]1C[C@@H]2CCCC[C@@H]2CN1C[C@@H](O)[C@H](Cc1ccccc1)NC(=O)[C@H](CC(N)=O)NC(=O)c1ccc2ccccc2n1
Response given: 34

Challenge: Notebook: pull reported Kd for Albumin (Homo sapiens, UniProt P02768), entry CC(=O)O[C@H]1C(=O)[C@@]2(C)C([C@H](OC(=O)c3ccccc3)[C@]3(O)C[C@H](OC(=O)[C@H](O)[C@@H](NC(=O)c4ccccc4)c4ccccc4)C(C)=C1C3(C)C)[C@]1(OC(C)=O)CO[C@@H]1C[C@@H]2OC(=O)CCC(=O)O (stereo partly drawn)
Response given: 192

Challenge: Notebook: pull reported Kd for Albumin (Homo sapiens, UniProt P02768), entry CC(=O)O[C@@]12CO[C@@H]1C[C@H](O)[C@@]1(C)C(=O)[C@H](O)C3=C(C)[C@@H](OC(=O)[C@H](O)[C@@H](NC(=O)OC(C)(C)C)c4ccccc4)C[C@@](O)([C@@H](OC(=O)c4ccccc4)[C@H]21)C3(C)C.O.O.O
Response given: 199

Challenge: Notebook: pull reported Kd for Albumin (Homo sapiens, UniProt P02768), entry Cc1cccc(C)c1OCC(=O)N[C@@H](Cc1ccccc1)[C@@H](O)C[C@H](Cc1ccccc1)NC(=O)[C@H](C(C)C)N1CCCNC1=O
Response given: 24

###

assayed-target: Albumin (Homo sapiens)
assay-summary: Dissociation rate constant for the interaction between the compound and serum albumin
Assay type: ADME
measure-name: Koff2 (s⁻¹)
Number in s⁻¹, nothing else.

Challenge: Request the reported Koff2 associated with CC(=O)O[C@@]12CO[C@@H]1C[C@H](O)[C@@]1(C)C(=O)[C@H](O)C3=C(C)[C@@H](OC(=O)[C@H](O)[C@@H](NC(=O)OC(C)(C)C)c4ccccc4)C[C@@](O)([C@@H](OC(=O)c4ccccc4)[C@H]21)C3(C)C.O.O.O
Response given: 0.069

Challenge: Request the reported Koff2 associated with CC(=O)O[C@@]1(C2/C(C)=C(/O)C(=O)C3=C(C)[C@@H](OC(=O)[C@H](O)[C@H](CC(C)C)NC(=O)OC(C)(C)C)C[C@@](O)([C@H]2OC(=O)c2ccccc2)C3(C)C)CO[C@@H]1CCO (some centres not stated)
Response given: 0.045
